Measured log10 Ki by item
# Target system: CDK7/cyclinH/MAT1 trimeric complex (Homo sapiens, UniProt P50613)
# Sequence (P50613 whole entry): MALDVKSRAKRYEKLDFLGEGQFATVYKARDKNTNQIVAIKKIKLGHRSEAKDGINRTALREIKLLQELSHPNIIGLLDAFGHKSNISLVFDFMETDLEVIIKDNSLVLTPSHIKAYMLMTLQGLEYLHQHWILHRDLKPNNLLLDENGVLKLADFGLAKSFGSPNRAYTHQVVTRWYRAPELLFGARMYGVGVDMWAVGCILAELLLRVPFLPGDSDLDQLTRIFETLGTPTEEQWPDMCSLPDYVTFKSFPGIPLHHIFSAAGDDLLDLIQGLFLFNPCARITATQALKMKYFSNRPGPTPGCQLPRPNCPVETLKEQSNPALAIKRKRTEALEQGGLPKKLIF
# Sequence (P51946 whole entry partner): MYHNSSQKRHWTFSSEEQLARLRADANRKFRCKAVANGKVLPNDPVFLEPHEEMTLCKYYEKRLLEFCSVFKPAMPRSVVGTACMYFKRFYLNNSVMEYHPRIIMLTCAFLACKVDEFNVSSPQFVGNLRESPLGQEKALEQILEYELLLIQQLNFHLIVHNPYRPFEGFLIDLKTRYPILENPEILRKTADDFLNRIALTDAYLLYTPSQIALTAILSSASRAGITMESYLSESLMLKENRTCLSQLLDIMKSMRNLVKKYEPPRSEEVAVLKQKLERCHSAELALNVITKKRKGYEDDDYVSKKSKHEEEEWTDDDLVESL
# Sequence (P51948 whole entry partner): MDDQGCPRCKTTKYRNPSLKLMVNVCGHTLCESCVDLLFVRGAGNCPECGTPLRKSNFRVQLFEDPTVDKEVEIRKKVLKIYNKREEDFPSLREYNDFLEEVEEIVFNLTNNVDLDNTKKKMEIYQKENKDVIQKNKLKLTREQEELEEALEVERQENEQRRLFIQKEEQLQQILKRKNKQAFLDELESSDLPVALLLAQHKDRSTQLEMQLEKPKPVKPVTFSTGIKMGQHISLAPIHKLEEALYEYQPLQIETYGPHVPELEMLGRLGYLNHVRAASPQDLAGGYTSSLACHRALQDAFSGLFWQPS
# Assay comment: In vitro CDK7 assay, potency of irreversible covalent inhibitors (kinact/KI), coupled PK/LDH ADP readout at 340 nm
# Condition description: CDK7 (20 nM enz.) (KI, μM), 20 nM enzyme
Quantity name: log10 Ki (log10 of the value in µM)

[[record]]
compound = "C=CC(=O)N1CC(N2CC[C@H](c3ccc4c(c3)Nc3nccc(N5CCOCC5)c3CO4)[C@@H](F)C2)C1 (mixture of isomers) [Compound 226]"
measured = -0.17

[[record]]
compound = "C=CC(=O)N1CC[C@@H](N2CCC(c3ccc4c(c3)Nc3ncc(F)c(N5CCOCC5)c3CO4)CC2)C1 (single isomer, unassigned) [Compound 223]"
measured = -0.90

[[record]]
compound = "C=CC(=O)N1CC(N2CCC(O)(c3ccc4c(c3)Nc3nccc(N5CCOCC5)c3C(C)O4)CC2)C1 (stereo not shown) [Compound 154]"
measured = -0.86

[[record]]
compound = "CC#CC(=O)N1CC[C@H](N2CC(c3cc(C)c4c(c3)Nc3nccc(C5CCOCC5)c3CO4)C2)C1 (single isomer, unassigned) [Compound 305]"
measured = -1.08

[[record]]
compound = "C=CC(=O)N1CC(N2CCC(c3ccc4c(c3)Nc3nccc(N5CCS(=O)(=NC)CC5)c3CO4)CC2)C1 [Compound 84]"
measured = -0.72

[[record]]
compound = "C=CC(=O)N1CC[C@H](N2CC(c3cc4c(c(C)n3)OCc3c(-c5cnn(C)c5)ccnc3N4)C2)[C@H](F)C1 (mixture of isomers) [Compound 213]"
measured = -0.57

[[record]]
compound = "C=CC(=O)N1CC(N2CCO[C@H](c3cc(C)c4c(c3)Nc3nccc(C5CCOCC5)c3CO4)CC2)C1 (single isomer, unassigned) [Compound 219]"
measured = -0.51

[[record]]
compound = "C=CC(=O)N1CCC(N2CC(c3cc4c(c(C5CC5)n3)OCc3c(N5CCOCC5)ccnc3N4)C2)CC1 [Compound 336]"
measured = -1.25

[[record]]
compound = "C=CC(=O)N1CC[C@H](N2CC(c3cc4c(c(C)n3)O[C@H](C)c3c(C5CCOCC5)ccnc3N4)C2)C1 (single isomer, unassigned) [Compound 422]"
measured = -1.38

[[record]]
compound = "C=CC(=O)N1CC(N2CCC(c3cc(Cl)c4c(c3)Nc3nccc(N5CCS(=O)(=O)CC5)c3CO4)CC2)C1 [Compound 115]"
measured = -1.31


Taken from patent US20240254138A1.
